tested on: ATP; experiment: switch fluorescence ratio, 500 uM ATP over buffer (Cy3 cluster intensity, sum of 5 cycles each) (fold (ratio)); higher = stronger signal-on switching upon ATP binding; sequences stand for … in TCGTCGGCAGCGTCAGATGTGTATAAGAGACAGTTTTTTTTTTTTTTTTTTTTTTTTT…TC; conditions: aptamer strand: ATP DNA aptamer (quencher-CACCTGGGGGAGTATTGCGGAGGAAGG + anchor), 100 nM annealed; ATP concentration: 500 uM;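 also: ATP exposure 15 min at 22 °C before imaging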
ATTRIBUTE MEASURED: switch fluorescence ratio
I'd appreciate a reply containing only the number, no unit.

Input: Dear colleague, I am looking for the recorded switch fluorescence ratio of the following sequence: TCGTCTAAGG
Output: 0.995

Input: Item GCGAAAGGGA has what recorded switch fluorescence ratio?
Output: 1.02

Input: Fill in the blank: the reported switch fluorescence ratio of GCACCAAGAA is ____.
Output: 1.03

Input: State the recorded switch fluorescence ratio for this entry: TTGCCCGAA
Output: 1.01

Input: Fill in the blank: the reported switch fluorescence ratio of ACACCGGTTA is ____.
Output: 1.01

Input: State the recorded switch fluorescence ratio for this entry: GGATGGTATG
Output: 1.01

Input: I'd like to know its switch fluorescence ratio. The sequence in question is AAATGTAAGG
Output: 0.99

Input: Please look up its switch fluorescence ratio: GATGTCTAGC
Output: 0.989

Input: State the recorded switch fluorescence ratio for this entry: GGGTTTTATC
Output: 0.999

Input: So what does the record say about switch fluorescence ratio for TTGGGAGTTG ?
Output: 0.984

Input: I would be grateful if you could share the reported switch fluorescence ratio for TTTTGGCTGT .
Output: 1.09

Input: Item ATTTGGATGT has what recorded switch fluorescence ratio?
Output: 1

Input: State the recorded switch fluorescence ratio for this entry: CACTAGCTCG
Output: 1.02

Input: Endpoint output: switch fluorescence ratio of TGGCGTTTTT . Value?
Output: 1.01

Input: Consider the sequence TTTTCGATAG and give its measured switch fluorescence ratio.
Output: 1

Input: Dear colleague, I am looking for the recorded switch fluorescence ratio of the following sequence: GGGGAAGCCT
Output: 1.07

Input: Need switch fluorescence ratio of CCGTGCACGG , thanks.
Output: 0.978

Input: State the recorded switch fluorescence ratio for this entry: GACCTTTCGT
Output: 1.1

Input: Return reported switch fluorescence ratio; argument: TGGGGGTGCC
Output: 0.976

Input: Look up switch fluorescence ratio for this sequence: TTTTTTTGGC
Output: 1.02

Input: Reported switch fluorescence ratio, sequence CGATGCATGG : ____
Output: 1.71

Input: Form field: reported switch fluorescence ratio of GAATGTAGTT
Output: 1.01

Input: For the sequence AGTTAGAAAT , what switch fluorescence ratio is on record?
Output: 1.02

Input: Report switch fluorescence ratio for CGTTTACTTT please.
Output: 0.984

Input: Dear colleague, I am looking for the recorded switch fluorescence ratio of the following sequence: AGGGCTTGTG
Output: 0.987

Input: Which value of switch fluorescence ratio has been reported for GCTGGATTGG in the records?
Output: 0.965

Input: Bench note: what switch fluorescence ratio did TAAGGAGTAA show?
Output: 1.03

Input: Suppose we examine the sequence TATAGTCTA ; what switch fluorescence ratio value has been reported?
Output: 1.01

Input: Any idea what switch fluorescence ratio was measured for GACCGCAGCA ?
Output: 4.22

Input: Record request: switch fluorescence ratio value, item TGTCTATAGT
Output: 0.986

Input: May I ask what switch fluorescence ratio has been recorded for TTACGGGCGT ?
Output: 0.99

Input: For the sequence shown here, TTTCGTGGTC , give the reported switch fluorescence ratio.
Output: 1.02

Input: Bench note: what switch fluorescence ratio did ATAGCAGGTG show?
Output: 2.9

Input: Any idea what switch fluorescence ratio was measured for CGGGAAAACG ?
Output: 0.995

Input: Bench note: what switch fluorescence ratio did TTAGAATTCC show?
Output: 1.1

Input: Would you mind telling me what switch fluorescence ratio value was observed for AGATTGGACG ?
Output: 1.02

Input: # get_value(readout='switch fluorescence ratio', item= GTGTAAGGTT )
Output: 0.993

Input: Reported switch fluorescence ratio for TATGTAGCCG : what is it?
Output: 1.03

Input: Data request, read-out switch fluorescence ratio, for CAATGTGTTT
Output: 1.01

Input: Data request, read-out switch fluorescence ratio, for AAGCAGGGTG
Output: 1

Input: If you can, please state the reported switch fluorescence ratio value of TATCATGTGT .
Output: 0.977

Input: Can you share its switch fluorescence ratio? I mean this sequence: AGAGAGATCC
Output: 1.02

Input: Need switch fluorescence ratio of GCCTGATACA , thanks.
Output: 1.02

###

test system: ATP; test: switch fluorescence ratio, 500 uM ATP over buffer (Cy3 cluster intensity, sum of 5 cycles each) (fold (ratio)); higher = stronger signal-on switching upon ATP binding; sequences stand for … in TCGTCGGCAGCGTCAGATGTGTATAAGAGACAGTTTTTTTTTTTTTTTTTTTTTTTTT…TC; conditions: aptamer strand: ATP DNA aptamer (quencher-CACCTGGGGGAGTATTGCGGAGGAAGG + anchor), 100 nM annealed; ATP concentration: 500 uM;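 also: ATP exposure 15 min at 22 °C before imaging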
Binary call on switch fluorescence ratio: YES from 1 upward, NO beneath that.

Input: Assess whether reported switch fluorescence ratio for GATCCTAACG sits at 1 or higher.
Output: YES

Input: Textbook exercise: given the entry AATGTTTTAC , state whether its switch fluorescence ratio is greater than or equal to 1.
Output: NO

Input: Please indicate if the recorded switch fluorescence ratio for GGGGAGACGA meets or exceeds 1.
Output: YES

Input: # check: switch fluorescence ratio of TGAGGCGCGG is greater than or equal to 1
Output: NO

Input: Entry TTTAATGATT : is its switch fluorescence ratio no less than 1?
Output: YES

Input: Could you tell me if the measured switch fluorescence ratio of ATAGGCATTT reaches 1 or more?
Output: YES

Input: Item TTAGTTTGAA with switch fluorescence ratio of 1 or above?
Output: NO

Input: Answer whether switch fluorescence ratio of CTAACGCCTG is greater than or equal to 1.
Output: YES

Input: Please tell me: is the sequence ACGTTCCGCT at or over 1 in terms of switch fluorescence ratio?
Output: YES

Input: Has GAATGTATGG a recorded switch fluorescence ratio greater than or equal to 1?
Output: YES

Input: Does the sequence CAATAGGGGC have recorded switch fluorescence ratio that is 1 or more?
Output: NO

Input: Please check the record CTATCAGCTA and state if its switch fluorescence ratio is at or above 1.
Output: YES

Input: Hi team, for CACTGGGTGT , is the recorded switch fluorescence ratio at or above 1?
Output: YES

###

Would you mind telling me the reported switch fluorescence ratio of each entry?
tested on: ATP; test: switch fluorescence ratio, 500 uM ATP over buffer (Cy3 cluster intensity, sum of 5 cycles each) (fold (ratio)); higher = stronger signal-on switching upon ATP binding; sequences stand for … in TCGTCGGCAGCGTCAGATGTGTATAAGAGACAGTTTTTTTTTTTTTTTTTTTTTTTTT…TC; settings: aptamer strand: ATP DNA aptamer (quencher-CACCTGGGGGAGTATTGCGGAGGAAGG + anchor), 100 nM annealed; ATP concentration: 500 uM;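 also: ATP exposure 15 min at 22 °C before imaging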
// return just the number, without any unit appended

Input: Tell me the measured switch fluorescence ratio of TAATGTTTAG , please.
Output: 0.99

Input: # query: switch fluorescence ratio of entry TTAGACCGGA
Output: 1.02

Input: So what's the measured switch fluorescence ratio for this one? GTAATTGCGG
Output: 0.977

Input: Query (sequence): TCAGCAGGGG ; field requested: switch fluorescence ratio
Output: 2.67

Input: Need switch fluorescence ratio, item GAAGAATGGT
Output: 0.975

Input: Suppose we examine the sequence ATTATGGGAT ; what switch fluorescence ratio value has been reported?
Output: 0.996

Input: # input sequence: GGTACTCGTA ; wanted: its switch fluorescence ratio
Output: 1.01

Input: Which switch fluorescence ratio value is on record for GGATCTTGTG ?
Output: 1.01

Input: What switch fluorescence ratio value was documented for this sequence, GATTCAAAGG ?
Output: 0.991

Input: Any idea what switch fluorescence ratio was measured for GCAGAGGAAC ?
Output: 1.03

Input: Look up switch fluorescence ratio for this sequence: CAAATTATGG
Output: 1.03

Input: Look up switch fluorescence ratio for this sequence: GGGGTGGGTA
Output: 0.998

Input: Looking for the measured switch fluorescence ratio of TGAGGGGGGA , can you help?
Output: 1

Input: Need switch fluorescence ratio of GGGATTATGT , thanks.
Output: 0.97

Input: Could you share which switch fluorescence ratio value was measured for AAGTTGGGGG ?
Output: 1.01

Input: Can you look up the measured switch fluorescence ratio of GTGTTATCTG for me?
Output: 0.978

Input: Return reported switch fluorescence ratio; argument: TTTTTTTTCG
Output: 1.05

Input: # lookup: switch fluorescence ratio of AACTCCGGCG
Output: 1.13

Input: For the sequence shown here, TGGTAGGATG , give the reported switch fluorescence ratio.
Output: 0.964

Input: Which measured switch fluorescence ratio value corresponds to ATTCAGCATT ?
Output: 1.05

Input: # input sequence: ATAGTGGGTC ; wanted: its switch fluorescence ratio
Output: 1.04

Input: For GGGAGGGGTT , what is its reported switch fluorescence ratio?
Output: 1.01

Input: Please look up its switch fluorescence ratio: TTGTTTACTT
Output: 1.04

Input: Recorded switch fluorescence ratio of ACTCGGGA , please.
Output: 1.13

Input: Requested field: switch fluorescence ratio. Item: GGGGCATGCA
Output: 0.99

Input: // lookup switch fluorescence ratio for GGACAGGCAT
Output: 0.985

Input: Which switch fluorescence ratio is reported for this sequence? TGCCGTTTTT
Output: 1.02

Input: Reported switch fluorescence ratio, sequence ATTGCGCTTC : ____
Output: 1.06

Input: switch fluorescence ratio lookup needed for TATAGGGAAA , thanks.
Output: 1.09

Input: What measured switch fluorescence ratio goes with GGGCTTTTCG ?
Output: 0.992

Input: Entry under review: GATTGATTGT . Reported switch fluorescence ratio?
Output: 0.987

Input: Consider the sequence shown here: TAGCACGCGG What is its recorded switch fluorescence ratio?
Output: 0.975

Input: So what does the record say about switch fluorescence ratio for TATAGCAGGG ?
Output: 1.03

Input: For the sequence GAGAGCGGGG , what switch fluorescence ratio is on record?
Output: 0.968

Input: Field request: switch fluorescence ratio | item: TATTTCGATA
Output: 1.03

Input: What value of switch fluorescence ratio has been reported for the following sequence? TAACAGATTT
Output: 0.958

Input: Can you look up the measured switch fluorescence ratio of GACTATGAGG for me?
Output: 1.02

Input: Which measured switch fluorescence ratio value corresponds to TGGTATTTTT ?
Output: 0.991

Input: Any idea what its switch fluorescence ratio is? The sequence is TGTGTGCGGC
Output: 1

Input: Name the reported switch fluorescence ratio value associated with the sequence ATTACGGGGG
Output: 1.01

Input: If you can, please state the reported switch fluorescence ratio value of TTGGGGCCTC .
Output: 1

Input: Give its switch fluorescence ratio value. Item: CGGTTTTTAT
Output: 0.983

Input: Reported switch fluorescence ratio, sequence TACTTGGCTT : ____
Output: 1.02
